# TEST SYSTEM: T1, human VEGFA165 (human, UniProt P15692-4 27-191)
# T1 construct: Bought protein from two suppliers, treated as one molecule; the supplier is named under assay; also called antigen VEGFA
# T1 sequence (P15692 other isoform, or with tags, fused parts or gaps limits assumed): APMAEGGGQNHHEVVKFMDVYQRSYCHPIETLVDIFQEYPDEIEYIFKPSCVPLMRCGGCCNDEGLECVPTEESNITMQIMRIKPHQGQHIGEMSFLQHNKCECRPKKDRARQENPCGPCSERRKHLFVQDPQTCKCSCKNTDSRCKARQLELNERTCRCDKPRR
# ASSAY REMARKS: ELISA, coated human VEGFA165, anti-His detection
# Experimental: Antigen human VEGFA165 (label-free, purchased from Sino Biological, Cat. No.: HPLC-10008-HNAH, hereinafter referred to as VEGFA) was diluted with ELISA coating buffer to a final concentration of 0.3 μg/mL and added to a microplate at 100 μL/well for coating at 4° C. overnight. […] The solution used for antibody dilution was PBS containing 0.1% Tween-20 (pH 7.4), i.e., PBST. […] The absorbance at 450 nm (OD450) was measured using a microplate reader. […]
MEASURED ENDPOINT: EC50 (nM)
Give the number; nM is assumed, so skip it.

| BINDER | UNIT SPEC | EC50 |
| --- | --- | --- |
| 2V1-DP-NL (VHH, Tandem bivalent humanized nanobody) EVQLVESGGGLVQPGGSLRLSCAVSGRTFSSYTMGWFRQAPGKEREFVVAISKGGYKYDSVSLEARFTISRDNSKNTVYLQMNSLRPEDTAVYYCAATRAYGSSRLRLADTYEYWGQGTLVTVSSEVQLVESGGGLVQPGGSLRLSCAVSGRTFSSYTMGWFRQAPGKEREFVVAISKGGYKYDSVSLEARFTISRDNSKNTVYLQMNSLRPEDTAVYYCAATRAYGSSRLRLADTYEYWGQGTLVTVSS | nM | 0.2 |
| 2V15-4m-3GS (VHH, Tandem bivalent humanized nanobody) EVQLVESGGGLVQPGGSLRLSCAASGRTFASYTMGWFRQAPGKEREFVVAISKGGYKYDSVSLEARFTISRDNAKNTVYLQMNSLRPEDTAVYYCAGTRAYGSSRLRLAETYEYWGQGTLVTVSSGGSEVQLVESGGGLVQPGGSLRLSCAASGRTFASYTMGWFRQAPGKEREFVVAISKGGYKYDSVSLEARFTISRDNAKNTVYLQMNSLRPEDTAVYYCAGTRAYGSSRLRLAETYEYWGQGTLVTVSS | nM | 0.24 |
| 2V40-3H-2m-NL (VHH, Tandem bivalent humanized nanobody) EVQLVESGGGLVQPGGSLRLSCAASGRTFSSYTMGWFRQAPGKEREFVVAISKGGYKYNAVSLEARFTISRDNSKNTVYLQMNSLRPEDTAVYYCAATRAYGSSRLRLAKTYEYWGQGTLVTVSSEVQLVESGGGLVQPGGSLRLSCAASGRTFSSYTMGWFRQAPGKEREFVVAISKGGYKYNAVSLEARFTISRDNSKNTVYLQMNSLRPEDTAVYYCAATRAYGSSRLRLAKTYEYWGQGTLVTVSS | nM | 0.26 |

Turning to the following binder.
Reported EC50 for 2V15-4m-NL (VHH, Tandem bivalent humanized nanobody) EVQLVESGGGLVQPGGSLRLSCAASGRTFASYTMGWFRQAPGKEREFVVAISKGGYKYDSVSLEARFTISRDNAKNTVYLQMNSLRPEDTAVYYCAGTRAYGSSRLRLAETYEYWGQGTLVTVSSEVQLVESGGGLVQPGGSLRLSCAASGRTFASYTMGWFRQAPGKEREFVVAISKGGYKYDSVSLEARFTISRDNAKNTVYLQMNSLRPEDTAVYYCAGTRAYGSSRLRLAETYEYWGQGTLVTVSS was 0.19
